Measured values drawn from patent US20130101549A1 for this set.

# STUDY_SYSTEM: T1, Her2-Fc D1 (MR066)
# T1 construct: also called ErbB2-Fc Domain 1
# T1 chain: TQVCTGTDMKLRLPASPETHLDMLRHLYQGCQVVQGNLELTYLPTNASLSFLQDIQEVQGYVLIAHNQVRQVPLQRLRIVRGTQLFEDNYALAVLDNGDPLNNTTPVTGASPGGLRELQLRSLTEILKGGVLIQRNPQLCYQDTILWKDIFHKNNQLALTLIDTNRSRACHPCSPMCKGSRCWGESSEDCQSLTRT
# ASSAY_DETAILS: ELISA, HER2-Fc construct captured by anti-huFc, Fab from 1 ug/ml in 5-fold steps, HRP anti-kappa/lambda
# Protocol: Nunc Maxisorp ELISA plates were coated with 5 ug/ml rabbit pAbs anti-human Fc gamma in PBS overnight at 4 degrees. Plates were washed one time with PBST (PBS, 0.05% tween 20) and blocked with 1% BSA in PBS for one hour at room temperature. Plates were washed one time with PBST and incubated with 1 ug/ml HER2-Fc fusion protein for one hour. […] Absorbance values were read at 450 nm.

{"BINDER": "BIIB67F10 Fab (Fab, V domains shown, Soluble human Fab from a naive phagemid Fab library) VH: EVQLLESGGGLVQPGGSLRLSCAASGFTFSPYMMVWVRQAPGKGLEWVSWISPSGGYTFYADSVKGRFTISRDNSKNTLYLQMNSLRAEDTAVYYCAYGTYPLTYWGQGTLVTVSS VL: QSELTQTPSVSVSPGQTASITCSGDKLGDKYVSWFQLKPGQSPLLVIYQDSKWPSGIPERFSGSNSGNTATLTISGTQATDEADYYCQVWDISHVVFGGGTKLTVL", "binding result": "binds"}
{"BINDER": "BIIB67F11 Fab (Fab, V domains shown, Soluble human Fab from a naive phagemid Fab library) VH: EVQLLESGGGLVQPGGSLRLSCAASGFTFSNYYMMWVRQAPGKGLEWVSVIGSSGGMTNYADSVKGRFTISRDNSKNTLYLQMNSLRAEDTAVYYCARGYPTGYYDSSGWVYSYYGIDVWGQGTTVTVSS VL: DIQMTQSPSSLSASIGDRVTITCQASQDTDNRLHWYQQKSGRAPKLLIYDAVNLKRGVPSRFRGSGSGTNFILTITNLQPEDMATYFCQHSDGLSLAFGGGTKLEIK", "binding result": "binds"}
